- SUBJECT OF TEST: DRB1*0101 (Homo sapiens, UniProt P01903+P01911, A100R/D57E/F55L/F60I/F76Y/I96L/L162R/M171V/P40L/Q125E/R42F/V115G/Y59C)
- Construct: endogenous in cells
- ASSAY EXPLANATION: Competition binding assay using soluble HLA class II
Where a SMILES comes first, the peptide text is derived from it.
Would you kindly list pIC50 for each of these compounds?
Answers are plain numbers, as −log10 of the molar value.

Here is how some compounds turned out for pIC50.
COMPOUND: CC(C)C[C@H](NC(=O)[C@H](CCCCN)NC(=O)[C@H](CCCNC(=N)N)NC(=O)[C@H](CC(C)C)NC(=O)[C@H](CS)NC(=O)[C@H](CO)NC(=O)[C@H](C)N)C(=O)NCC(=O)N[C@H](C(=O)N1CCC[C@H]1C(=O)N1CCC[C@H]1C(=O)N[C@@H](CC(C)C)C(=O)N[C@@H](CCCNC(=N)N)C(=O)N[C@H](C(=O)N[C@@H](Cc1c[nH]c2ccccc12)C(=O)O)C(C)C)C(C)C
QUANTITY NAME: pIC50
MEASURED NUMBER: 8.31
--
COMPOUND: CC(C)C[C@H](NC(=O)[C@@H](NC(=O)[C@@H](NC(=O)[C@@H](N)CC(C)C)C(C)C)C(C)C)C(=O)N[C@@H](C)C(=O)N[C@H](C(=O)N[C@@H](C)C(=O)N[C@H](C(=O)N1CCC[C@H]1C(=O)N1CCC[C@H]1C(=O)NCC(=O)N[C@@H](CO)C(=O)N[C@H](C(=O)N[C@H](C(=O)N[C@H](C(=O)O)C(C)C)[C@@H](C)O)C(C)C)[C@@H](C)O)[C@@H](C)O (H-LVVLATATPPGSVTV-OH; N-terminus and C-terminus assumed)
QUANTITY NAME: pIC50
MEASURED NUMBER: 7.14
--
COMPOUND: CC(C)C[C@H](NC(=O)[C@H](C)NC(=O)CNC(=O)[C@H](C)NC(=O)[C@@H](NC(=O)CNC(=O)[C@H](C)NC(=O)CNC(=O)[C@H](Cc1ccc(O)cc1)NC(=O)CNC(=O)[C@H](C)NC(=O)[C@@H](N)CC(C)C)C(C)C)C(=O)N[C@H](C(=O)N[C@@H](C)C(=O)N[C@@H](Cc1ccccc1)C(=O)O)C(C)C
QUANTITY NAME: pIC50
MEASURED NUMBER: 6.86

Fill in pIC50 for each of the 2 compounds listed.
1. CC[C@H](C)[C@H](NC(=O)[C@H](Cc1c[nH]cn1)NC(=O)[C@@H](NC(=O)[C@H](CC(C)C)NC(=O)CNC(=O)[C@@H](NC(=O)[C@H](Cc1ccccc1)NC(=O)[C@@H](NC(=O)[C@H](CO)NC(=O)[C@H](CCC(=O)O)NC(=O)[C@@H](N)Cc1c[nH]c2ccccc12)C(C)C)[C@@H](C)O)[C@@H](C)O)C(=O)N[C@@H](CC(=O)O)C(=O)N[C@@H](C)C(=O)N[C@@H](Cc1c[nH]cn1)C(=O)N[C@@H](Cc1ccccc1)C(=O)O
2. CC(C)C[C@H](NC(=O)[C@H](CC(N)=O)NC(=O)CNC(=O)[C@@H](NC(=O)[C@H](C)NC(=O)[C@H](Cc1ccc(O)cc1)NC(=O)[C@H](CC(N)=O)NC(=O)[C@@H](NC(=O)CN)C(C)C)[C@@H](C)O)C(=O)N1CCC[C@H]1C(=O)NCC(=O)N[C@@H](CS)C(=O)N[C@@H](CO)C(=O)N[C@@H](Cc1ccccc1)C(=O)N[C@@H](CO)C(=O)O

Result:
[6.91, 5.34]

Just for reference, patent US20060093617A1 is where these values come from.
